- System: NCI-H1650
- assayProcedure: relative viability (nuclei count vs DMSO), 5 days (fraction); higher = more cells survive
- testConditions: first compound 2 µM
Hi there, I'd appreciate the recorded relative viability for every entry that follows.

Summary for this compound, Cc1csc(=NC2CCCCC2)n1/N=C/c1ccc(O)c(O)c1O [MIM1] + Nc1ncn([C@H]2C[C@H](O)[C@@H](CO)O2)c(=O)n1 [Decitabine] (partner 2 µM) : relative viability is 0.348

Summary for this compound, CN1CCN(CCOc2cc(OC3CCOCC3)c3c(Nc4c(Cl)ccc5c4OCO5)ncnc3c2)CC1 [Saracatinib] + CC1(C)CCC(c2ccc(Cl)cc2)=C(CN2CCN(c3ccc(C(=O)NS(=O)(=O)c4ccc(N[C@H](CCN5CCOCC5)CSc5ccccc5)c(S(=O)(=O)C(F)(F)F)c4)cc3)CC2)C1 [Navitoclax] (partner 0.5 µM) : relative viability is 0.981

// below: relative viability requested for another compound
Summary for this compound, Cc1csc(=NC2CCCCC2)n1/N=C/c1ccc(O)c(O)c1O [MIM1] + CS(=O)(=O)CCNCc1ccc(-c2ccc3ncnc(Nc4ccc(OCc5cccc(F)c5)c(Cl)c4)c3c2)o1 [Lapatinib] (partner 2 µM) : relative viability is 0.565
